Origin of values: patent US8748485B2

experiment: Kinetic study in dogs (oral administration, plasma levodopa); settings: dog, in vivo, po, 3 mg/kg
recorded-endpoint: AUC (area under the blood concentration-time curve of levodopa) (μg^+ hr/mL)
Number in μg^+ hr/mL, nothing else.

// known answers, use as guide
INSERT INTO measurements (compound, quantitative_result) VALUES
  ('CC(=O)OC(C)(C)C(=O)Oc1ccc(C[C@H](N)C(=O)O)cc1OC(=O)C(C)(C)OC(C)=O.Cl [Reference Example 32]', 0.53),
  ('CCC(C)(CC)C(=O)Oc1ccc(C[C@H](N)C(=O)O)cc1OC(=O)C(C)(CC)CC.Cl [Reference Example 18]', 0.12),
  ('Cc1ccccc1C(=O)Oc1ccc(C[C@H](N)C(=O)O)cc1OC(=O)c1ccccc1C.Cl [Reference Example 23]', 0.59);

So what does the record say about AUC (area under the blood concentration-time curve of levodopa) for CC(C)(COC(=O)c1ccsc1)C(=O)Oc1ccc(C[C@H](N)C(=O)O)cc1OC(=O)C(C)(C)COC(=O)c1ccsc1.Cl [Reference Example 11] ?
0.52

Item: CC(C)(COC(=O)c1cccs1)C(=O)Oc1ccc(C[C@H](N)C(=O)O)cc1OC(=O)C(C)(C)COC(=O)c1cccs1.Cl [Reference Example 6]
0.66
